protocol-description: folding enthalpy; higher = less favourable; fluorescence melt of hairpins on a sequencing array, two-state fit
assay-conditions: sodium 0.088 M
Note to self: values exactly at -20 kcal/mol are y. So folding enthalpy at or above -20 kcal/mol is y, below is n.

Solved cases (8 shown):
chain-sequence | assigned-class
GCTGTGCGAAAGCCCCGC ((.(.((....)).).)) | y
GATTTGAAAAAATC (((((....))))) | y
GCTGAGGGAAACCCCAGC ((((.((....)).)))) | n
GCCGCGCGAAAGCACCGC ((.(.((....)).).)) | y
GTCTACGAAAGTAACGAC ((((((....)))..))) | y
GCAGCGCGAAAGCCTTGC (((..((....))..))) | y
GCGAAACGAAAGTTGCGC (((.(((....))).))) | n
GCGGCGTCGAAAGACCGC (((..(((....)))))) | n

Request: Say whether GTAGCTCGAAAGAGATAC (((.(((....))).))) shows folding enthalpy of -20 kcal/mol or more.
Response: n

Request: # check: folding enthalpy of GACCGGGGAAACCTGGTC ((((.((....)).)))) is greater than or equal to -20 kcal/mol
Response: n

Request: Dear colleague, could you confirm whether CGACCCGGAAACGGCTCG (((.(((....))).))) has folding enthalpy at or above -20 kcal/mol?
Response: n

Request: I'd appreciate it if you could say whether GGTCATGGAAACGTGACC (((((.(....).))))) has folding enthalpy at least equal to -20 kcal/mol.
Response: n

Request: Threshold query (folding enthalpy >= -20 kcal/mol) on GATCAAAGATTTGATC ((((((....))))))
Response: n

Request: Is folding enthalpy at least -20 kcal/mol? Consider GCATTGTCGAAAGACTGC (((..(((....))))))
Response: n

Request: Can GCTAAGCGAAAGCAAAGC (((..((....))..))) be said to have folding enthalpy at or above -20 kcal/mol?
Response: y
